# measured target: human recombinant H-PGDS (Homo sapiens, UniProt O60760)
# Sequence (O60760 whole entry): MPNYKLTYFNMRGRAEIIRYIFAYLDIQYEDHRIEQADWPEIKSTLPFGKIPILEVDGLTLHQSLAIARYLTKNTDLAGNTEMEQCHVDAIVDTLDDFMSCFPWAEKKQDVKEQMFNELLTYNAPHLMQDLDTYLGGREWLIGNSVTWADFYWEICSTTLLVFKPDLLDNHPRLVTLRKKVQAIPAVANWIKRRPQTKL
# protocol details: Fluorescence intensity h-PGDS TBA enzyme assay
# Type: biochemical
# setup conditions: Examples up to 622 (and 3a, 3b)
Please respond with reported IC50 for every item in the list.
// note: answer is a bare numeric in nM

[Q] Record request: IC50 value, item Cn1cnc2c(N3CCC(NC(=O)c4ccc(-c5cccc(F)c5)nc4)CC3)ncnc21 [Example 125]
[A] 0.176

[Q] Record request: IC50 value, item Cn1nc(-c2cccc(F)c2)nc1CN1CCC(NC(=O)c2ccc(-c3cccc(F)c3)nc2)CC1 [Example 483]
[A] 3.58

[Q] Record request: IC50 value, item O=C(NC1CCN(Cc2ncc[nH]2)CC1)c1ccc(-c2cccc(F)c2)nc1 [Example 300]
[A] 0.362

[Q] Record request: IC50 value, item O=C(NC1CCN(Cc2ccccc2OCCO)CC1)c1ccc(-c2cccc(F)c2)nc1 [Example 255]
[A] 0.738

[Q] Record request: IC50 value, item CC(CCCC(C)(C)O)CCN1CCC(NC(=O)c2ccc(-c3cccc(F)c3)nc2)CC1 (centres unmarked) [Example 336]
[A] 1.82

[Q] Record request: IC50 value, item Cc1cc(N(C)C)nc(N2CCC(NC(=O)c3ccc(-c4cccc(F)c4)nc3)CC2)n1 [Example 143]
[A] 0.688

[Q] Record request: IC50 value, item O=C(NC1CCN(Cc2cc3ccccc3nn2)CC1)c1ccc(-c2cccc(F)c2)nc1 [Example 261]
[A] 1.48

[Q] Record request: IC50 value, item CC(C)N1CCC(NC(=O)c2ccc(-c3ccccc3)nc2)CC1 [Example 4]
[A] 2.58
